Entry source: patent US20180110824A1

target: human growth hormone secretagogue receptor (hGHS-R1a) (Homo sapiens, UniProt Q92847)
Construct: purchased PerkinElmer BioSignal #RBHGHSM; host or cells: HEK-293, stably transfected
Sequence (Q92847 whole entry): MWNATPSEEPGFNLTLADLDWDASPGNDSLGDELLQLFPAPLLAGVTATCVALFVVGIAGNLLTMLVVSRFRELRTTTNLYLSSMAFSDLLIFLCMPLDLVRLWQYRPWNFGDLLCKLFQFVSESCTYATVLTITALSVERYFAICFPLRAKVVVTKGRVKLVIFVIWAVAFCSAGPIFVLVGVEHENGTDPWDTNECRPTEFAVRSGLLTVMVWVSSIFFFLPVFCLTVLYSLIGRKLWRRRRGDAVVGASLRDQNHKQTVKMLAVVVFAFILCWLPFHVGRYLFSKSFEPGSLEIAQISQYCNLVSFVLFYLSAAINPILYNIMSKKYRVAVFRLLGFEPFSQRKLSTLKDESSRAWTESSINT
protocol_description: Competitive radioligand binding assay (ghrelin receptor), [125I]-ghrelin displacement on GHS-R/HEK 293 membranes
details: Table 4; TFA salts unless otherwise noted; read-out: Ki
The following compounds are listed with their measured Ki values.
readout_name: Ki

>>> assay_value("CC(C)C[C@@H]1NCCOc2ccccc2CCCNC(=O)[C@@H](Cc2ccccc2)NC(=O)C2(CCCC2)NC1=O")
"10 to 100 nM"
>>> assay_value("C[C@@H]1C(=O)N[C@H](Cc2ccc(F)cc2)C(=O)NCC#Cc2ccccc2OCCN[C@@H](C2CC2)C(=O)N1C")
"10 to 100 nM"
>>> assay_value("CC(C)C[C@@H]1NCCOc2ccccc2CCCNC(=O)[C@H](Cc2ccccc2)NC(=O)C2(CC2)NC1=O")
"10 to 100 nM"
>>> assay_value("CCC(C)C1NCCOc2ccccc2CCCNC(=O)C(Cc2ccccc2)NC(=O)C(C)NC1=O (stereo not shown)")
"100 to 1000 nM"
>>> assay_value("C[C@@H]1C(=O)N[C@H](Cc2ccc(Cl)cc2Cl)C(=O)NCCCc2ccccc2OCCN[C@@H](C2CC2)C(=O)N1C")
"0.1 to 10 nM"
>>> assay_value("C[C@@H]1C(=O)N[C@H](Cc2ccc(F)cc2)C(=O)NCCCc2cc(NS(C)(=O)=O)ccc2OCCN[C@@H](C2CC2)C(=O)N1C")
"10 to 100 nM"
>>> assay_value("CCC[C@@H]1NCCOc2ccccc2CCCNC(=O)[C@@H](Cc2c[nH]c3ccccc23)NC(=O)CN(C)C1=O")
"100 to 1000 nM"

* * *

target: human ghrelin receptor (hGHS-R1a) (Homo sapiens, UniProt Q92847)
Construct: host or cells: CHO-K1 co-expressing Gα16 and mitochondrially targeted aequorin
Sequence (Q92847 whole entry): as above
protocol_description: Aequorin functional assay (ghrelin receptor), CHO-K1 cells co-expressing Gα16 and aequorin
Format: cell-based
details: EC50 (nM), Table 4; functional (agonist) activity; TFA salts unless otherwise noted
readout_name: EC50

>>> assay_value("CCC(C)[C@@H]1NCCOc2ccccc2CCCNC(=O)[C@@H](Cc2ccc(Cl)cc2)NC(=O)[C@@H](C)N(C)C1=O (stereo partly shown) [compound 25]")
"1 to 100 nM"

* * *

Each entry below carries its recorded pKi.
target: human growth hormone secretagogue receptor (hGHS-R1a) (Homo sapiens)
Construct: purchased PerkinElmer BioSignal #RBHGHSM; host or cells: HEK-293, stably transfected
protocol_description: Competitive radioligand binding assay (ghrelin receptor), [125I]-ghrelin displacement on GHS-R/HEK 293 membranes
details: Table 4; TFA salts unless otherwise noted; read-out: Ki
pKi: −log10 of the molar value.
readout_name: pKi

>>> assay_value("C[C@@H]1C(=O)N[C@H](Cc2c(F)c(F)c(F)c(F)c2F)C(=O)NCCCc2ccccc2OCCN[C@@H](C2CC2)C(=O)N1C")
"8.00 to 10.00"
>>> assay_value("O=C1NC/C=C/c2ccccc2OCCNC2(CCCC2)C(=O)NC2(CCCC2)C(=O)N[C@H]1Cc1ccccc1")
"7.00 to 8.00"
>>> assay_value("COc1ccc(C[C@@H]2NC(=O)C3(CCCC3)NC(=O)[C@H](CC(C)C)NCCOc3ccccc3/C=C/CNC2=O)cc1")
"7.00 to 8.00"
>>> assay_value("CC(C)C[C@@H]1NCCOc2ccccc2/C=C/CNC(=O)[C@H](Cc2ccccc2)NC(=O)C2(CCCC2)NC1=O")
"7.00 to 8.00"
